Values were extracted from patent US7794719.

Target or test system: Aβ1-40 fibers (human)
Measurement notes: SPR
Property: Kd; scope: individual binders
Report the value in nM with no unit label.

Some binders with recorded Kd:
Binder: MS-R 7.11.H1 x 7.2.L1 IgG1 (antibody, V domains shown) VH: QLVESGGGLVQPGGSLRLSCAASGFTFSSYAMSWVRQAPGKGLEWVSGINAAGFRTYYADSVKGRFTISRDNSKNTLYLQMNSLRAEDTAVYYCARGKGNTHKPYGYVRYFDVWGQGTLVTVSS VL: DIVLTQSPATLSLSPGERATLSCRASQYVDRTYLAWYQQKPGQAPRLLIYGASSRATGVPARFSGSGSGTDFTLTISSLEPEDFATYYCQQIYSFPHTFGQGTKVEIKR
Kd [nM]: 0.14
--
Binder: MS-R 3.6.H5 x 3.6.L2 IgG1 (antibody, V domains shown) VH: QLVESGGGLVQPGGSLRLSCAASGFTFSSYAMSWVRQAPGKGLEWVSAISESGKTKYYADSVKGRFTISRDNSKNTLYLQMNSLRAEDTAVYYCARLTHYARYYRYFDVWGQGTLVTVSS VL: DIVLTQSPATLSLSPGERATLSCRASQFLSRYYLAWYQQKPGQAPRLLIYGASSRATGVPARFSGSGSGTDFTLTISSLEPEDFAVYYCQQTYNYPPTFGQGTKVEIKR
Kd [nM]: 0.2
--
Binder: MS-R 7.4.H2 x 7.2.L1 IgG1 (antibody, V domains shown) VH: QLVESGGGLVQPGGSLRLSCAASGFTFSSYAMSWVRQAPGKGLEWVSAINYNGARIYYADSVKGRFTISRDNSKNTLYLQMNSLRAEDTAVYYCARGKGNTHKPYGYVRYFDVWGQGTLVTVSS VL: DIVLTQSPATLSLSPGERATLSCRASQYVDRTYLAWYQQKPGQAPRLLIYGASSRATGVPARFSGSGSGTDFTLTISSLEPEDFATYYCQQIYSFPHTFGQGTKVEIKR
Kd [nM]: 0.12

Q: Look at this binder and give its reported Kd. MS-R 7.9.H2 IgG1 (antibody, V domains shown) VH: QLVESGGGLVQPGGSLRLSCAASGFTFSSYAMSWVRQAPGKGLEWVSAINADGNRKYYADSVKGRFTISRDNSKNTLYLQMNSLRAEDTAVYYCARGKGNTHKPYGYVRYFDVWGQGTLVTVSS VL: DIVLTQSPATLSLSPGERATLSCRASQSVSSSYLAWYQQKPGQAPRLLIYGASSRATGVPARFSGSGSGTDFTLTISSLEPEDFATYYCLQIYNMPITFGQGTKVEIKR
A: 0.12
